The values you see were collected from patent US20130338152A1.

# measuredTarget: UniProtKB P00519
# Sequence (P00519 whole entry): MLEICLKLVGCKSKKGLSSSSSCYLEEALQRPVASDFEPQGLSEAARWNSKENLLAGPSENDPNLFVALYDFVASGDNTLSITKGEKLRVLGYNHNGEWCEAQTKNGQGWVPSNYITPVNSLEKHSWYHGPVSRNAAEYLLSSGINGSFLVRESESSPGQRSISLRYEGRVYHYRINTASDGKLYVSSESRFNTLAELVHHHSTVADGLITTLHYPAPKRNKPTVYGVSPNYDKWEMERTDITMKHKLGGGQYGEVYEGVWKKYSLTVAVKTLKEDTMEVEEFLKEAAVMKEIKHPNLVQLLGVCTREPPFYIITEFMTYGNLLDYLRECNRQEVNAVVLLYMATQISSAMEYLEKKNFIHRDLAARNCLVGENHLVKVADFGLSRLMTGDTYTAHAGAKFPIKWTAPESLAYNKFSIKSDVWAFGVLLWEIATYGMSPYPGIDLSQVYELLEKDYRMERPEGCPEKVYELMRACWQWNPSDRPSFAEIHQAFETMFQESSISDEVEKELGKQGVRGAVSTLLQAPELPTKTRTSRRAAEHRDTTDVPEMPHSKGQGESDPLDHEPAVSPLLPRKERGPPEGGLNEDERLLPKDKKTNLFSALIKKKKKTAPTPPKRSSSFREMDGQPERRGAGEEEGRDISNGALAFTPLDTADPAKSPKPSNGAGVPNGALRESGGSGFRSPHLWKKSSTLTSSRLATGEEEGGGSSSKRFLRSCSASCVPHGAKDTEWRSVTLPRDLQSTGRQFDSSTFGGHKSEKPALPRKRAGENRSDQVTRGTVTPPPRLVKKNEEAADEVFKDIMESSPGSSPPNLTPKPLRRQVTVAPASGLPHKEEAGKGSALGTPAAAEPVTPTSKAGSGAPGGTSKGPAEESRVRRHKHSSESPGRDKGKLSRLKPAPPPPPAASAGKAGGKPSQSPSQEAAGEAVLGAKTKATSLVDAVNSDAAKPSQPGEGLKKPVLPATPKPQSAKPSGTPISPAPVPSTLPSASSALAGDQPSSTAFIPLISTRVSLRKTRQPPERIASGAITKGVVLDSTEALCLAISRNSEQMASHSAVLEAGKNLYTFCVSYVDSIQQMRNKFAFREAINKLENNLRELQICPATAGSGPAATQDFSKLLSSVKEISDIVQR
# testProtocol: Kinase assay of known compound and phenol metabolite X
# Assay type: biochemical
# cond: metabolite comparison table
readoutName: IC50

## Task Report IC50 for Nc1ncnc2c1c(-c1cccc(OCc3ccccc3)c1)cn2[C@H]1C[C@@H](CN2CCC2)C1 [WO02/092599, ex. 102] tested on UniProtKB P00519.
## Result > 10 µM

---

pIC50: −log10 of the molar value.
Heads up, these compounds all have pIC50 values measured for JAK2 (Homo sapiens).

## Task Entry under review: Nc1ncnc2c1c(-c1cc(OC[C@@H]3CCCO3)ccc1F)cn2[C@H]1C[C@@H](N2CCN(C(=O)CO)CC2)C1 . Reported pIC50?
## Result < 5.00

## Task Entry under review: CC(=O)N1CCN([C@H]2C[C@H](n3cc(-c4cc(OC[C@@H]5CCCO5)ccc4F)c4c(N)ncnc43)C2)CC1 . Reported pIC50?
## Result < 5.00

---

# measuredTarget: EphB4 (Homo sapiens)
readoutName: IC50

## Task Entry under review: Nc1ncnc2c1c(-c1cccc(OCc3ccccc3)c1)cn2[C@H]1C[C@@H](CN2CCC2)C1 . Reported IC50?
## Result > 10 µM

---

# measuredTarget: CDK2A (Homo sapiens, UniProt P24941)
readoutName: IC50

Below are worked cases with known answers.
molecule=[2H]C1([2H])C([2H])([2H])C2(COc3cccc(-c4cn([C@H]5C[C@](O)(CO)C5)c5ncnc(N)c45)c3F)OC1([2H])C([2H])([2H])C2([2H])[2H] observed="> 10 µM"
molecule="Nc1ncnc2c1c(-c1cc(OCC34CCC(CC3)O4)ccc1F)cn2[C@H]1C[C@@H](N2CC[S+]([O-])CC2)C1 (relative stereo)" observed="> 10 µM"

## Task Report IC50 for CC(=O)N1CCN([C@H]2C[C@H](n3cc(-c4cc(OC[C@@H]5CCCO5)ccc4F)c4c(N)ncnc43)C2)CC1 tested on CDK2A (Homo sapiens, UniProt P24941).
## Result > 10 µM

---

# measuredTarget: UniProt P07949
# testProtocol: Enzymatic kinase assay
# Format: biochemical
# cond: enzymatic; read-out: RET IC50 values (converted)
Reported IC50 by item:

compound=Nc1ncnc2c1c(-c1cccc(OC[C@@H]3CCCO3)c1F)cn2[C@H]1C[C@@H](CN2CC[S+]([O-])CC2)C1 readoutname=IC50 observed="3.4 µM"
compound="Nc1ncnc2c1c(-c1cc(OCC34CCC(CC3)O4)ccc1F)cn2[C@H]1C[C@@H](N2CC[S+]([O-])CC2)C1 (relative stereo)" readoutname=IC50 observed="> 10 µM"

# next compound below
## Task Entry under review: [2H]C1([2H])C([2H])([2H])C2(COc3cccc(-c4cn([C@H]5C[C@](O)(CO)C5)c5ncnc(N)c45)c3F)OC1([2H])C([2H])([2H])C2([2H])[2H] . Reported IC50?
## Result > 10 µM

---

# measuredTarget: FGFR-4 (Homo sapiens, UniProt P22455)
# Sequence (P22455 22-802, species assumed): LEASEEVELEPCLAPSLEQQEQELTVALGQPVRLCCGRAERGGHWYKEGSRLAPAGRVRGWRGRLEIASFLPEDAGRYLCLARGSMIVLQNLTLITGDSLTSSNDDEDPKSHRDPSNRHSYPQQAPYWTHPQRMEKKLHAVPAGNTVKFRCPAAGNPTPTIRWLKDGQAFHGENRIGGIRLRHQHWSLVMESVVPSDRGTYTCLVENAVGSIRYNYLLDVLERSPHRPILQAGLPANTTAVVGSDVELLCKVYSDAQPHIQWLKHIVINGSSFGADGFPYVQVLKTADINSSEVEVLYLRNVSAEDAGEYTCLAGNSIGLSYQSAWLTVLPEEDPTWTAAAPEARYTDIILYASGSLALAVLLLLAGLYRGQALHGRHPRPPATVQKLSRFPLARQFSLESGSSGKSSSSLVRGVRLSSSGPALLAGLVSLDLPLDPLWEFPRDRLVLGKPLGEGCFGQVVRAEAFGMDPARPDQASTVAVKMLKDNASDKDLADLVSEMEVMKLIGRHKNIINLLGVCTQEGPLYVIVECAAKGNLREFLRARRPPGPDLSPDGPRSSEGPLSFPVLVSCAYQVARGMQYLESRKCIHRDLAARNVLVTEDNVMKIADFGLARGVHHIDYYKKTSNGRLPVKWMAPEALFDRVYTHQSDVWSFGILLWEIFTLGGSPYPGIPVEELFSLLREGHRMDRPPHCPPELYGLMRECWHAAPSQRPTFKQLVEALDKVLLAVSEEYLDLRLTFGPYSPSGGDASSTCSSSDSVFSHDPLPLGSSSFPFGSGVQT
readoutName: IC50

## Task Entry under review: Nc1ncnc2c1c(-c1cccc(OCC3CCCO3)c1F)cn2[C@H]1C[C@@H](CN2CCS(=O)(=O)CC2)C1 (mixture of isomers) . Reported IC50?
## Result > 10 µM

## Task Entry under review: CC(=O)N1CCN([C@H]2C[C@H](n3cc(-c4cc(OC[C@@H]5CCCO5)ccc4F)c4c(N)ncnc43)C2)CC1 . Reported IC50?
## Result > 10 µM

## Task Entry under review: [2H]C1([2H])C([2H])([2H])C2(COc3cccc(-c4cn([C@H]5C[C@@H](N6CC[S+]([O-])CC6)C5)c5ncnc(N)c45)c3F)OC1([2H])C([2H])([2H])C2([2H])[2H] . Reported IC50?
## Result > 10 µM

---

Reported IC50 by item:
# measuredTarget: Aurora A (Homo sapiens, UniProt O14965)
# Sequence (O14965 1-403): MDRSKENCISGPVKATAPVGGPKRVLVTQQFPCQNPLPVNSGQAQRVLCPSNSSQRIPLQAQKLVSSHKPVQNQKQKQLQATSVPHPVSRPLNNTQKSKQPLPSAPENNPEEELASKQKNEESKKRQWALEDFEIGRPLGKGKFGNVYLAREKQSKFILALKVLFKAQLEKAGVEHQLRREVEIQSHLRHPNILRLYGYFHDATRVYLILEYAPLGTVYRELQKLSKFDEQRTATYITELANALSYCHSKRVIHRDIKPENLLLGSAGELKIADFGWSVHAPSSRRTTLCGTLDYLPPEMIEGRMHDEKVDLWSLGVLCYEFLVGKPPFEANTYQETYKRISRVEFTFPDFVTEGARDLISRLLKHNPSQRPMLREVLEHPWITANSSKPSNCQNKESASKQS

Below are worked cases with known answers.
molecule=[2H]C1([2H])C([2H])([2H])C2(COc3cccc(-c4cn([C@H]5C[C@](O)(CO)C5)c5ncnc(N)c45)c3F)OC1([2H])C([2H])([2H])C2([2H])[2H] observed="> 10 µM"
molecule=Nc1ncnc2c1c(-c1cc(OC[C@@H]3CCCO3)ccc1F)cn2[C@H]1C[C@@H](N2CCN(C(=O)CO)CC2)C1 observed="> 10 µM"

# next molecule below
## Task Entry under review: Nc1ncnc2c1c(-c1cccc(OC[C@@H]3CCCO3)c1F)cn2C1CC2(CNC(=O)O2)C1 (stereo partly drawn) . Reported IC50?
## Result > 10 µM

---

# measuredTarget: IGF1R (Homo sapiens)
# Sequence (P08069 31-1367): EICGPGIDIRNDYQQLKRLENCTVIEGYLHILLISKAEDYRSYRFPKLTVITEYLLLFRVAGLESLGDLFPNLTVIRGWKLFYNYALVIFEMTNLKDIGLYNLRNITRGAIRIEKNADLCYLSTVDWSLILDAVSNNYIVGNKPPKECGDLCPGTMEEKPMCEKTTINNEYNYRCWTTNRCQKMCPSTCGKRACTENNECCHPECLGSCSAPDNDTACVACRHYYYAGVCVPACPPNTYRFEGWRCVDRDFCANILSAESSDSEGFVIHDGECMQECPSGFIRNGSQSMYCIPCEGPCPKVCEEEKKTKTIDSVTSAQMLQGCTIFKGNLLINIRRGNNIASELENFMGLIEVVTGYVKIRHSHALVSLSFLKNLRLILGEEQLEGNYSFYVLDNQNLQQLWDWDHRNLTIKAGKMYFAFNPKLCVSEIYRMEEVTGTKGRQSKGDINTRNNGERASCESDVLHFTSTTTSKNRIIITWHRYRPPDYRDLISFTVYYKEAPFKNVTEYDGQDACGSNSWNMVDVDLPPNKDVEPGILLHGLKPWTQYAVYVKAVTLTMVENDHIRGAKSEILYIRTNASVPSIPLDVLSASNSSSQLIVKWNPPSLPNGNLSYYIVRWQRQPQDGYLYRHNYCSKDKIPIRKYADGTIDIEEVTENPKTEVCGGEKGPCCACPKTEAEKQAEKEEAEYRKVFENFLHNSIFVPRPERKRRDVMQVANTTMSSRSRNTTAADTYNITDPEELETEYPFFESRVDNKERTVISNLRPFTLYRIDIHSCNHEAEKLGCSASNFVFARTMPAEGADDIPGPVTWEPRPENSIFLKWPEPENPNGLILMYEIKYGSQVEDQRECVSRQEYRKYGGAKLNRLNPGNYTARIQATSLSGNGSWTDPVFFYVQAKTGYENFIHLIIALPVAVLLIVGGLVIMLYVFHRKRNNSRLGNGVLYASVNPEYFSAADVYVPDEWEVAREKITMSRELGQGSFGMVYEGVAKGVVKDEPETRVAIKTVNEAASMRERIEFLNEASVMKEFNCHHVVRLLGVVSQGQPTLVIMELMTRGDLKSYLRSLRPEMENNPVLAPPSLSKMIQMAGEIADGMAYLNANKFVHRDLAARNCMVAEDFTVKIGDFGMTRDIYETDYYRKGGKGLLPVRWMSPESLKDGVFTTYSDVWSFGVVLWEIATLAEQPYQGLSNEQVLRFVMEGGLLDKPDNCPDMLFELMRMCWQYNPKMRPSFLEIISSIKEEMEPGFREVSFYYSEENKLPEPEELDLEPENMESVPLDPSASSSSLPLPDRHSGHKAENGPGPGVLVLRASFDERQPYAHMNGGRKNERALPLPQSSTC
# testProtocol: Enzymatic kinase assay (filter-binding/flashplate)
# Type: biochemical
readoutName: pIC50
# log scale: pIC50 equals minus log10 of the concentration in mol/L

compound=Nc1ncnc2c1c(-c1cccc(OC[C@@H]3CCCO3)c1F)cn2[C@H]1C[C@@H](CN2CC[S+]([O-])CC2)C1 readoutname=pIC50 observed=8.42
compound=CC(=O)N1CCN([C@H]2C[C@H](n3cc(-c4cc(OC[C@@H]5CCCO5)ccc4F)c4c(N)ncnc43)C2)CC1 readoutname=pIC50 observed=7.52
compound=Nc1ncnc2c1c(-c1cc(OC[C@@H]3CCCO3)ccc1F)cn2[C@H]1C[C@@H](N2CCN(C(=O)CO)CC2)C1 readoutname=pIC50 observed=8.06

# next compound below
## Task Entry under review: [2H]C1([2H])C([2H])([2H])C2(COc3cccc(-c4cn([C@H]5C[C@](O)(CO)C5)c5ncnc(N)c45)c3F)OC1([2H])C([2H])([2H])C2([2H])[2H] . Reported pIC50?
## Result 7.66

---

# measuredTarget: UniProtKB P07949
# testProtocol: Enzymatic kinase assay
# Type: biochemical
# cond: metabolite comparison table; read-out: RET IC50
readoutName: IC50
Reply with the number and its unit after it.

## Task Entry under review: Nc1ncnc2c1c(-c1cccc(OCc3ccccc3)c1)cn2[C@H]1C[C@@H](CN2CCC2)C1 . Reported IC50?
## Result 4.4 µM

---

Heads up, these compounds all have pIC50 values measured for KDR (Homo sapiens, UniProt P35968).
# log scale: pIC50 equals minus log10 of the concentration in mol/L

compound="Nc1ncnc2c1c(-c1cccc(OC[C@@H]3CCCO3)c1F)cn2[C@H]1C[C@@H](CN2CC[S+]([O-])CC2)C1 [Example 6]" measuredtarget="KDR (Homo sapiens, UniProt P35968)" readoutname=pIC50 observed=5.24

# next compound below
## Task Report pIC50 for Nc1ncnc2c1c(-c1cccc(OC[C@@H]3CCCO3)c1F)cn2C1CC2(CNC(=O)O2)C1 (stereo partly shown) [Example 4] tested on KDR (Homo sapiens, UniProt P35968).
## Result 5.35

---

# measuredTarget: RET (Homo sapiens, UniProt P07949)
# Sequence (P07949 29-1114, species assumed): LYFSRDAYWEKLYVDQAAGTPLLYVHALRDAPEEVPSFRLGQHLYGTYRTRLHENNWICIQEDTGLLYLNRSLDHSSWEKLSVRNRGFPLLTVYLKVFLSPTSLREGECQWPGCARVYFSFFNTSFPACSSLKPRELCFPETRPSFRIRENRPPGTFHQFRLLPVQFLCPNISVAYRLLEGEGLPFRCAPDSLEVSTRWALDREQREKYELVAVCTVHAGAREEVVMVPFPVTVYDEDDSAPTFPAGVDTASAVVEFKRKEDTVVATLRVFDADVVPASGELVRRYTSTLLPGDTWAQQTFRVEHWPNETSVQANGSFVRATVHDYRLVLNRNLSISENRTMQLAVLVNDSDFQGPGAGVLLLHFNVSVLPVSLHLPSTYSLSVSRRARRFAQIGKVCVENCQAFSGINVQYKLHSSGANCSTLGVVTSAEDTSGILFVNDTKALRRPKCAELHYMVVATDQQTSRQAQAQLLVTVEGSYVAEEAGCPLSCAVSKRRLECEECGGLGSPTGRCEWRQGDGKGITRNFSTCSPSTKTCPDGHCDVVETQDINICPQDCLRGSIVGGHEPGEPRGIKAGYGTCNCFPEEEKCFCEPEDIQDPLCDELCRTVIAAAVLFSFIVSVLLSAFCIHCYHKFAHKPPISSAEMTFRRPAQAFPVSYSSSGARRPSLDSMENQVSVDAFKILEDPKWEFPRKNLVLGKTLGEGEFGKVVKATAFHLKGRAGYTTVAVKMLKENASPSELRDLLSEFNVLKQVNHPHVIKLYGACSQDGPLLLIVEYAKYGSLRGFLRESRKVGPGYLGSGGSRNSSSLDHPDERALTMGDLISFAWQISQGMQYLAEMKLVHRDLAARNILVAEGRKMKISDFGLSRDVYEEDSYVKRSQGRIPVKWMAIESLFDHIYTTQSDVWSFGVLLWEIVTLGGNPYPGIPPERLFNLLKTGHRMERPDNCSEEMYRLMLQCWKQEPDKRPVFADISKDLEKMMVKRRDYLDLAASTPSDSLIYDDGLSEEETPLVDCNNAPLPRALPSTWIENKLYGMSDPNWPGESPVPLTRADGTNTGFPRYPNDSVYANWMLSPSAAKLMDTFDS
# testProtocol: Enzymatic kinase assay
# Type: biochemical
# cond: enzymatic; read-out: RET IC50 values (converted)
readoutName: IC50

compound="[2H]C1([2H])C([2H])([2H])C2(COc3cccc(-c4cn([C@H]5C[C@@H](N6CC[S+]([O-])CC6)C5)c5ncnc(N)c45)c3F)OC1([2H])C([2H])([2H])C2([2H])[2H] [Example 18]" readoutname=IC50 observed="> 10 µM"
compound="CC(=O)N1CCN([C@H]2C[C@H](n3cc(-c4cc(OC[C@@H]5CCCO5)ccc4F)c4c(N)ncnc43)C2)CC1 [Example 36]" readoutname=IC50 observed="3.1 µM"
compound="[2H]C1([2H])C([2H])([2H])C2(COc3ccc(F)c(-c4cn([C@H]5C[C@@H](N6CCN(C(C)=O)CC6)C5)c5ncnc(N)c45)c3)OC1([2H])C([2H])([2H])C2([2H])[2H] [Example 10]" readoutname=IC50 observed="6.4 µM"
compound="Nc1ncnc2c1c(-c1cccc(OC[C@@H]3CCCO3)c1F)cn2C1CC2(CNC(=O)O2)C1 (stereo partly drawn) [Example 4]" readoutname=IC50 observed="> 10 µM"
compound="Nc1ncnc2c1c(-c1cc(OC[C@@H]3CCCO3)ccc1F)cn2[C@H]1C[C@@H](N2CCN(C(=O)CO)CC2)C1 [Example 40]" readoutname=IC50 observed="> 10 µM"

## Task Entry under review: Nc1ncnc2c1c(-c1cccc(OCC3CCCO3)c1F)cn2[C@H]1C[C@@H](CN2CCS(=O)(=O)CC2)C1 (mixture of isomers) [Example 1] . Reported IC50?
## Result 2 µM
